Numbers sourced from ChEMBL document CHEMBL1150774.

# System: Rattus norvegicus
# experiment: Hypotensive activity in Wistar rat assessed as decrease in heart rate at 0.1 mg/kg, iv after 60 mins
# Type: functional
Property: Activity; scope: individual compounds
Give the number; bpm is assumed, so skip it.

>>> df
               chemicalstructure  recordedresult
0  COc1ccc2cnn(N=C3NCCN3)c2c1.Cl            -4.1

Specify reported Activity for the compound shown: Cl.c1ccc(-c2nn(N=C3NCCN3)c3ccccc23)cc1 -11.1

Specify reported Activity for the compound shown: COc1cccc2c1cnn2N=C1NCCN1.Cl -12.5

* * *

# Test system: Rattus norvegicus
# experiment: Hypotensive activity in Wistar rat assessed as decrease in heart rate at 0.1 mg/kg, iv after 30 mins
# Assay type: functional
Property: Activity; scope: individual molecules
Give the number; bpm is assumed, so skip it.

Worked examples follow.
              chemicalstructure  reportedmetric  recordedresult
0   COc1cccc2c1cnn2N=C1NCCN1.Cl        Activity            -9.7
1   Cl.Clc1cccc2c1cnn2N=C1NCCN1        Activity           -32.2
2  Cc1cccc2cnn(N=C3NCCN3)c12.Cl        Activity            -115

Query molecule follows.
Specify reported Activity for the molecule shown: Cc1ccc2c(cnn2N=C2NCCN2)c1.Cl -3.2

* * *

Property: Ki; scope: individual compounds
# experiment: Displacement of [3H]2BFI from imidazoline 2 receptor in Sprague-Dawley rat brain
Give the number; µM is assumed, so skip it.

Worked examples follow.
In [3]: df
Out[3]:
                                   compound  reportedmetric   u  recordedresult
0              Cc1cccc2cnn(N=C3NCCN3)c12.Cl              Ki  µM            2.52
1  Cl.c1ccc2c(c1)cnn2N=C1NCCN1 [MARSANIDINE HYDROCHLORIDE]              Ki  µM            16.9
2               COc1cccc2c1cnn2N=C1NCCN1.Cl              Ki  µM            5.98

Specify reported Ki for the compound shown: c1ccc2nn(N=C3NCCN3)cc2c1 77.8

Specify reported Ki for the compound shown: Cc1ccc2cn(N=C3NCCN3)nc2c1 42.9

* * *

# experiment: Displacement of [3H][…] from alpha2 adrenoceptor in Sprague-Dawley rat brain
Ki under 0.1 µM gets 1 (yes), anything at or over 0.1 µM gets 0 (no).

Some entries whose results are on file:
>>> df
                        chemicalstructure  classname
0  Cl.c1ccc(-c2nn(N=C3NCCN3)c3ccccc23)cc1     0 (no)
1              Cc1cccc2c1cnn2N=C1NCCN1.Cl    1 (yes)
2               Cc1nn(N=C2NCCN2)c2ccccc12     0 (no)
3           COc1ccc2cnn(N=C3NCCN3)c2c1.Cl    1 (yes)
4                c1ccc2c(c1)ncn2N=C1NCCN1     0 (no)

Consider the additional compound presented here.
For this compound, is Ki lower than 0.1 µM? Cc1ccc2cn(N=C3NCCN3)nc2c1 0 (no)

* * *

# Organism: Rattus norvegicus
# experiment: Selectivity for Sprague-Dawley rat alpha 2 adrenoceptor over Sprague-Dawley rat imidazoline 1 receptor
Label false if Selectivity ratio falls below 7; label true in every other case.

                                 molecule  classname
0  Cl.c1ccc(-c2nn(N=C3NCCN3)c3ccccc23)cc1      false
1               Cc1ccc2nn(N=C3NCCN3)cc2c1      false
2              Clc1cccc2nn(N=C3NCCN3)cc12       true
3             COc1cccc2c1cnn2N=C1NCCN1.Cl      false
4                c1ccc2c(c1)ncn2N=C1NCCN1       true

Dear colleague, could you confirm whether Cc1ccc2cn(N=C3NCCN3)nc2c1 has Selectivity ratio at or above 7? false

Dear colleague, could you confirm whether Cc1cccc2cnn(N=C3NCCN3)c12.Cl has Selectivity ratio at or above 7? true

Dear colleague, could you confirm whether Cc1cccc2c1cnn2N=C1NCCN1.Cl has Selectivity ratio at or above 7? true

Dear colleague, could you confirm whether Cl.c1ccc2c(c1)cnn2N=C1NCCN1 [MARSANIDINE HYDROCHLORIDE] has Selectivity ratio at or above 7? true
